compounds and their reported Bliss excess
# System: TE-5 (Esophageal Squamous Cell Carcinoma)
# METHOD NOTES: Bliss excess, mean over the matrix (fraction); higher = more synergy;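 note: after 72 h of two-drug dosing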

COMPOUND	Bliss excess
C[C@@H](Nc1cc(F)cc(F)c1)c1cc(C(=O)N(C)C)cc2c(=O)cc(N3CCOCC3)oc12 [AZD8186] + CC(=O)c1c(C)c2cnc(Nc3ccc(N4CCNCC4)cn3)nc2n(C2CCCC2)c1=O [Palbociclib] (first compound max 10 µM, 7x7, partner max 10 µM)	0.0301
CCN(CCO)CCCOc1ccc2c(Nc3cc(CC(=O)Nc4cccc(F)c4)[nH]n3)ncnc2c1 [AZD2811] + C[C@@H]1COCCN1C2=NC(=NC(=C2)C3(CC3)[S@](=N)(=O)C)C4=C5C=CNC5=NC=C4 [AZD6738] (first compound max 1 µM, 7x7, partner max 10 µM)	-0.0582
CC1(C)CCC(CN2CCN(c3ccc(C(=O)NS(=O)(=O)c4ccc(NCC5CCOCC5)c([N+](=O)[O-])c4)c(Oc4cnc5[nH]ccc5c4)c3)CC2)=C(c2ccc(Cl)cc2)C1 [Venetoclax] + CS(=O)(=O)CCNCc1ccc(-c2ccc3ncnc(Nc4ccc(OCc5cccc(F)c5)c(Cl)c4)c3c2)o1 [Lapatinib] (first compound max 1 µM, 7x7, partner max 10 µM)	-0.0388
COc1nnc2ccc(N3CCC(c4ccc(OCCN5CCN(C)C(=O)[C@H]5C)cc4)CC3)nn12 [AZD5153] + C=CCn1c(=O)c2cnc(Nc3ccc(N4CCN(C)CC4)cc3)nc2n1-c1cccc(C(C)(C)O)n1 [AZD1775] (first compound max 1 µM, partner max 1 µM)	-0.0148
NC1(C(=O)N[C@@H](CCO)c2ccc(Cl)cc2)CCN(c2ncnc3[nH]ccc23)CC1 [Capivasertib] + CC(C)n1c(=O)n(C)c2cnc3cc(F)c(-c4ccc(OCCCN5CCCCC5)nc4)cc3c21 [AZD1390] (first compound max 10 µM, 7x7, partner max 0.3 µM)	-0.0254
NC1(C(=O)N[C@@H](CCO)c2ccc(Cl)cc2)CCN(c2ncnc3[nH]ccc23)CC1 [Capivasertib] + C[C@@H]1COCCN1C2=NC(=NC(=C2)C3(CC3)[S@](=N)(=O)C)C4=C5C=CNC5=NC=C4 [AZD6738] (first compound max 10 µM, 7x7, partner max 10 µM)	-0.0345

* * *

Overview of recorded Bliss excess for various compounds
# Tested on: MFH-ino (Other Solid Carcinomas)
# METHOD NOTES: Bliss excess, mean over the matrix (fraction); higher = more synergy
ENDPOINT: Bliss excess

COMPOUND	ASSAY SYSTEM	REPORTED VALUE
COc1nnc2ccc(N3CCC(c4ccc(OCCN5CCN(C)C(=O)[C@H]5C)cc4)CC3)nn12 [AZD5153] + C=CCn1c(=O)c2cnc(Nc3ccc(N4CCN(C)CC4)cc3)nc2n1-c1cccc(C(C)(C)O)n1 [AZD1775] (first compound max 1 µM, partner max 1 µM)	MFH-ino (Other Solid Carcinomas)	-0.0837
Cc1cc2ncnn2cc1Nc1ncc2c(n1)n(C1CCOCC1)c(=O)n2C [AZD7648] + CCN(CCO)CCCOc1ccc2c(Nc3cc(CC(=O)Nc4cccc(F)c4)[nH]n3)ncnc2c1 [AZD2811] (first compound max 10 µM, 7x7, partner max 1 µM)	MFH-ino (Other Solid Carcinomas)	-0.0094
C=CCn1c(=O)c2cnc(Nc3ccc(N4CCN(C)CC4)cc3)nc2n1-c1cccc(C(C)(C)O)n1 [AZD1775] + C[C@@H]1COCCN1C2=NC(=NC(=C2)C3(CC3)[S@](=N)(=O)C)C4=C5C=CNC5=NC=C4 [AZD6738] (first compound max 1 µM, partner max 10 µM)	MFH-ino (Other Solid Carcinomas)	-0.0909
Cc1c2c(nn1C)CSCc1cc(n(C)n1)CSc1cc(c3ccccc3c1)OCCCc1c(C(=O)O)n(C)c3c-2c(Cl)ccc13 [AZD5991] + CCN(CCO)CCCOc1ccc2c(Nc3cc(CC(=O)Nc4cccc(F)c4)[nH]n3)ncnc2c1 [AZD2811] (first compound max 1 µM, 7x7, partner max 1 µM)	MFH-ino (Other Solid Carcinomas)	0.0053

* * *

# Test system: J82 (Bladder Carcinoma)
# METHOD NOTES: Bliss excess, mean over the matrix (fraction); higher = more synergy
Label scheme for Bliss excess: lower than 0 is Not met, 0 and above is Met.

COMPOUND	GROUP LABEL
CN(CCO)CC[C@H](CSc1ccccc1)Nc1ccc(S(=O)(=O)NC(=O)c2ccc(N3CCC([C@@H](O)c4ccccc4-c4ccc(Cl)cc4)CC3)cc2)cc1S(=O)(=O)C(F)(F)F [AZD4320] + Cc1cc2ncnn2cc1Nc1ncc2c(n1)n(C1CCOCC1)c(=O)n2C [AZD7648] (first compound max 1 µM, 7x7, partner max 10 µM)	Not met
COc1nnc2ccc(N3CCC(c4ccc(OCCN5CCN(C)C(=O)[C@H]5C)cc4)CC3)nn12 [AZD5153] + Cc1c2c(nn1C)CSCc1cc(n(C)n1)CSc1cc(c3ccccc3c1)OCCCc1c(C(=O)O)n(C)c3c-2c(Cl)ccc13 [AZD5991] (first compound max 1 µM, 7x7, partner max 1 µM)	Met
COc1nnc2ccc(N3CCC(c4ccc(OCCN5CCN(C)C(=O)[C@H]5C)cc4)CC3)nn12 [AZD5153] + C=CCn1c(=O)c2cnc(Nc3ccc(N4CCN(C)CC4)cc3)nc2n1-c1cccc(C(C)(C)O)n1 [AZD1775] (first compound max 1 µM, partner max 1 µM)	Met
Cc1c2c(nn1C)CSCc1cc(n(C)n1)CSc1cc(c3ccccc3c1)OCCCc1c(C(=O)O)n(C)c3c-2c(Cl)ccc13 [AZD5991] + CCN(CCO)CCCOc1ccc2c(Nc3cc(CC(=O)Nc4cccc(F)c4)[nH]n3)ncnc2c1 [AZD2811] (first compound max 1 µM, 7x7, partner max 1 µM)	Met
COc1cccc(OCCCN)c1-c1cc(Nc2cnc(C#N)cn2)n[nH]1 [Prexasertib] + CN(C)CCCOc1ccc(-c2ccc3ncc4c(c3c2)n(C2CCOCC2)c(=O)n4C)cn1 [AZD0156] (first compound max 1 µM, 7x7, partner max 1 µM)	Met
CC1(C)CCC(CN2CCN(c3ccc(C(=O)NS(=O)(=O)c4ccc(NCC5CCOCC5)c([N+](=O)[O-])c4)c(Oc4cnc5[nH]ccc5c4)c3)CC2)=C(c2ccc(Cl)cc2)C1 [Venetoclax] + CCN(CCO)CCCOc1ccc2c(Nc3cc(CC(=O)Nc4cccc(F)c4)[nH]n3)ncnc2c1 [AZD2811] (first compound max 1 µM, 7x7, partner max 1 µM)	Not met
Cc1c2c(nn1C)CSCc1cc(n(C)n1)CSc1cc(c3ccccc3c1)OCCCc1c(C(=O)O)n(C)c3c-2c(Cl)ccc13 [AZD5991] + C[C@@H]1COCCN1C2=NC(=NC(=C2)C3(CC3)[S@](=N)(=O)C)C4=C5C=CNC5=NC=C4 [AZD6738] (first compound max 1 µM, 7x7, partner max 10 µM)	Met
COc1nnc2ccc(N3CCC(c4ccc(OCCN5CCN(C)C(=O)[C@H]5C)cc4)CC3)nn12 [AZD5153] + CN(CC[C@H](CSC1=CC=CC=C1)NC2=C(C=C(C=C2)S(=O)(=O)NC(=O)C3=CC=C(C=C3)N4CCC(CC4)[C@H](C5=CC=CC=C5C6=CC=C(C=C6)Cl)O)S(=O)(=O)C(F)(F)F)CCO [AZD4320] (first compound max 1 µM, 7x7, partner max 1 µM)	Met
Cc1cc2ncnn2cc1Nc1ncc2c(n1)n(C1CCOCC1)c(=O)n2C [AZD7648] + CN(C)CCCOc1ccc(-c2ccc3ncc4c(c3c2)n(C2CCOCC2)c(=O)n4C)cn1 [AZD0156] (first compound max 10 µM, 7x7, partner max 1 µM)	Not met
COc1nnc2ccc(N3CCC(c4ccc(OCCN5CCN(C)C(=O)[C@H]5C)cc4)CC3)nn12 [AZD5153] + CCN(CCO)CCCOc1ccc2c(Nc3cc(CC(=O)Nc4cccc(F)c4)[nH]n3)ncnc2c1 [AZD2811] (first compound max 1 µM, 7x7, partner max 1 µM)	Not met
Cc1c2c(nn1C)CSCc1cc(n(C)n1)CSc1cc(c3ccccc3c1)OCCCc1c(C(=O)O)n(C)c3c-2c(Cl)ccc13 [AZD5991] + Cn1cnc2c(F)c(Nc3ccc(Br)cc3Cl)c(C(=O)NOCCO)cc21 [Selumetinib] (first compound max 1 µM, 7x7, partner max 3 µM)	Not met
CC1(C)CCC(CN2CCN(c3ccc(C(=O)NS(=O)(=O)c4ccc(NCC5CCOCC5)c([N+](=O)[O-])c4)c(Oc4cnc5[nH]ccc5c4)c3)CC2)=C(c2ccc(Cl)cc2)C1 [Venetoclax] + C=CCn1c(=O)c2cnc(Nc3ccc(N4CCN(C)CC4)cc3)nc2n1-c1cccc(C(C)(C)O)n1 [AZD1775] (first compound max 1 µM, partner max 1 µM)	Not met

* * *

# Test system: SW1088 (Low Grade Glioma)
# METHOD NOTES: Bliss excess, mean over the matrix (fraction); higher = more synergy
Consider the following molecules and their measured Bliss excess readings.
ENDPOINT: Bliss excess

MOLECULE	REPORTED VALUE
CCN(CCO)CCCOc1ccc2c(Nc3cc(CC(=O)Nc4cccc(F)c4)[nH]n3)ncnc2c1 [AZD2811] + C[C@@H]1COCCN1C2=NC(=NC(=C2)C3(CC3)[S@](=N)(=O)C)C4=C5C=CNC5=NC=C4 [AZD6738] (first compound max 1 µM, 7x7, partner max 10 µM)	-0.103
CC1(C)CCC(CN2CCN(c3ccc(C(=O)NS(=O)(=O)c4ccc(NCC5CCOCC5)c([N+](=O)[O-])c4)c(Oc4cnc5[nH]ccc5c4)c3)CC2)=C(c2ccc(Cl)cc2)C1 [Venetoclax] + Cn1cnc2c(F)c(Nc3ccc(Br)cc3Cl)c(C(=O)NOCCO)cc21 [Selumetinib] (first compound max 1 µM, 7x7, partner max 3 µM)	-0.0407
CN(CCO)CC[C@H](CSc1ccccc1)Nc1ccc(S(=O)(=O)NC(=O)c2ccc(N3CCC([C@@H](O)c4ccccc4-c4ccc(Cl)cc4)CC3)cc2)cc1S(=O)(=O)C(F)(F)F [AZD4320] + CC(=O)O[C@H]1C(=O)[C@@]2(C)[C@H]([C@H](OC(=O)c3ccccc3)[C@]3(O)C[C@H](OC(=O)[C@H](O)[C@@H](NC(=O)c4ccccc4)c4ccccc4)C(C)=C1C3(C)C)[C@]1(OC(C)=O)CO[C@@H]1C[C@@H]2O [Paclitaxel] (first compound max 1 µM, 7x7, partner max 3 µM)	0.0303

Values from the supplement of paper PMC11061612
